Target Entity: T1, human CCR3 (human, UniProt P51677 1-355)
T1 construct: whole, on cells; also called chemokine receptor-3; hCCR3
T1 sequence (looked up): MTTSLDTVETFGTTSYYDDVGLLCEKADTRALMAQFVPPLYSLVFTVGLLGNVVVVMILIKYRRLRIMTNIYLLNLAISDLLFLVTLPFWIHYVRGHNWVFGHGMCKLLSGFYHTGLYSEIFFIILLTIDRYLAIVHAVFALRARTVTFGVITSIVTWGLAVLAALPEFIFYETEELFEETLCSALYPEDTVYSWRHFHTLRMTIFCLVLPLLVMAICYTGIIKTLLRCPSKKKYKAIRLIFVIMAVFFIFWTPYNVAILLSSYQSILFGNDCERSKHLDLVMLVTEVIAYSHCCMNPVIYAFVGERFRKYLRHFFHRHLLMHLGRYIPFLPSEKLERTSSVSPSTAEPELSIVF
Protocol Notes: displacement of 0.1 nM 125I-MCP4 from purified human eosinophils (CCR3)
Reported Metric: IC50

Task item: # query: IC50 of entry Met-Ckβ7* (ligand, E. coli-produced modified form of Ckβ7/MIP4: signal peptide removed, N-terminal Ala of the mature protein replaced by Met, C-terminus LKLMPEA; also called Met-22-87-Met-Pro-Glu-Ala; hg00701-e2) MQVGTNKELCCLVYTSWQIPQKFIVDYSETSPQCPKPGVILLTKRGRQICADPNKKWVQKYISDLKLMPEA
Reply: ~5 nM
